Target: TORC1 (TOR complex 1 kinase) (Saccharomyces cerevisiae)
Sequence (P35169 whole entry): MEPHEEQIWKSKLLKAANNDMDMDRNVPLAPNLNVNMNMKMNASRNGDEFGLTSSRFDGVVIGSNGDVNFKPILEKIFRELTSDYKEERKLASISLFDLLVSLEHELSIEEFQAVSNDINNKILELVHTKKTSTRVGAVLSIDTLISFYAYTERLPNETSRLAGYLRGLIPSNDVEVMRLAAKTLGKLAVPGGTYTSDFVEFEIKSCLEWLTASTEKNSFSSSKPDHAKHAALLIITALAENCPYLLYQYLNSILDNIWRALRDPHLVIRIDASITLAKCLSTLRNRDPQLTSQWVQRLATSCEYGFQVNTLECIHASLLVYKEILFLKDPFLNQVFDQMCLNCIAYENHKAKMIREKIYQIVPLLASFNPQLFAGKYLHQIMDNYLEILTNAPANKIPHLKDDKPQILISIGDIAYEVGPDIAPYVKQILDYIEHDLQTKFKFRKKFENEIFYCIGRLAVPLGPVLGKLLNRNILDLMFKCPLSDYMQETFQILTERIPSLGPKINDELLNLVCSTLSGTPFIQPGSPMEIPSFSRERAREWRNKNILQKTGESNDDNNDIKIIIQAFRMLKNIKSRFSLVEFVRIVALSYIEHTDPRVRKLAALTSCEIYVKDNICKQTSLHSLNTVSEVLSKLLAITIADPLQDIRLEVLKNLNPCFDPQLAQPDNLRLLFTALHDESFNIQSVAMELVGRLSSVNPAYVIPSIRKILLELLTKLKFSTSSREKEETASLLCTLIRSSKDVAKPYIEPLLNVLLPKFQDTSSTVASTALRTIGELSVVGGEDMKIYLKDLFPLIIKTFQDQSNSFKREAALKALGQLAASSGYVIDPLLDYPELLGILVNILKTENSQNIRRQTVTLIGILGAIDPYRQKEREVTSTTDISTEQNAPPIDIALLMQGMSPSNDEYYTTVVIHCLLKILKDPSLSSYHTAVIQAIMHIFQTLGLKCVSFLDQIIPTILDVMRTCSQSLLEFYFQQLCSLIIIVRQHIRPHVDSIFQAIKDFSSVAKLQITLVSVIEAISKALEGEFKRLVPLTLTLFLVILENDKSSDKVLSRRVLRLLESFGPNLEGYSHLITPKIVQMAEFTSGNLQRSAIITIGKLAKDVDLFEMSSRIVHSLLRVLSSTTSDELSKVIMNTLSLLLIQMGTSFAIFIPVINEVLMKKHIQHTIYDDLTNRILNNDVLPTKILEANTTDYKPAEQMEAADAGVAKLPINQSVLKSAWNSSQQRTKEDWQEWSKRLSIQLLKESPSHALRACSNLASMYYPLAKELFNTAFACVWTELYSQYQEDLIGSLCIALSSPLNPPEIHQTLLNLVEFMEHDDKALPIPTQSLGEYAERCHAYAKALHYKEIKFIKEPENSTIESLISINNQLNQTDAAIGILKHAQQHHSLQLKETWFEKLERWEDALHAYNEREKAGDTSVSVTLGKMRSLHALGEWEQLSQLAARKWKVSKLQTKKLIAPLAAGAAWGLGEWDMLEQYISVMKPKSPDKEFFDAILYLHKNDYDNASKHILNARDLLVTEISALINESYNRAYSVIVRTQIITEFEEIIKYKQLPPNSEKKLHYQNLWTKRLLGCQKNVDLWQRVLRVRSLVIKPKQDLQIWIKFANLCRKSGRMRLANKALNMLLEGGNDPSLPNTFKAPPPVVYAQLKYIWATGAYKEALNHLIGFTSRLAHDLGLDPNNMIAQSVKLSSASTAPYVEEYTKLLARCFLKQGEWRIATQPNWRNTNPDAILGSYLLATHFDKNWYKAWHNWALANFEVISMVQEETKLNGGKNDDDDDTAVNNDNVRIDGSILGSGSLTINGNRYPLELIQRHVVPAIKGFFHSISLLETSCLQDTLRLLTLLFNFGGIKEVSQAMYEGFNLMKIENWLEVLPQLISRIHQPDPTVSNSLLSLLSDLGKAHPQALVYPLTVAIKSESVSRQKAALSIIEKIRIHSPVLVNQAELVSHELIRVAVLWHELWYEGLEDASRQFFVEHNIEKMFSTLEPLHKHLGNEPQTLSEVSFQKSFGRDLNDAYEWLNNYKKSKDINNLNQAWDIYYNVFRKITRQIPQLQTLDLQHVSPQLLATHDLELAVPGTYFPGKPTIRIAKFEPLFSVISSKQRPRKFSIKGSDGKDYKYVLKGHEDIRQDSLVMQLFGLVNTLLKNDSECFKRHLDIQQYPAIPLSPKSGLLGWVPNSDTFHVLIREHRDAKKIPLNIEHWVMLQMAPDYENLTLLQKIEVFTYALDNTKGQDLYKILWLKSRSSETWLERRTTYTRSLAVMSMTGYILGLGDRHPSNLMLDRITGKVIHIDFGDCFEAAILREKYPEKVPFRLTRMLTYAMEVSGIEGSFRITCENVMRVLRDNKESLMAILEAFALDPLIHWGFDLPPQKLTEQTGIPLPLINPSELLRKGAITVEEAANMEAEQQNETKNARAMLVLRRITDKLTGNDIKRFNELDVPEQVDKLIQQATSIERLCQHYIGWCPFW
Sequence (P38873 whole entry partner): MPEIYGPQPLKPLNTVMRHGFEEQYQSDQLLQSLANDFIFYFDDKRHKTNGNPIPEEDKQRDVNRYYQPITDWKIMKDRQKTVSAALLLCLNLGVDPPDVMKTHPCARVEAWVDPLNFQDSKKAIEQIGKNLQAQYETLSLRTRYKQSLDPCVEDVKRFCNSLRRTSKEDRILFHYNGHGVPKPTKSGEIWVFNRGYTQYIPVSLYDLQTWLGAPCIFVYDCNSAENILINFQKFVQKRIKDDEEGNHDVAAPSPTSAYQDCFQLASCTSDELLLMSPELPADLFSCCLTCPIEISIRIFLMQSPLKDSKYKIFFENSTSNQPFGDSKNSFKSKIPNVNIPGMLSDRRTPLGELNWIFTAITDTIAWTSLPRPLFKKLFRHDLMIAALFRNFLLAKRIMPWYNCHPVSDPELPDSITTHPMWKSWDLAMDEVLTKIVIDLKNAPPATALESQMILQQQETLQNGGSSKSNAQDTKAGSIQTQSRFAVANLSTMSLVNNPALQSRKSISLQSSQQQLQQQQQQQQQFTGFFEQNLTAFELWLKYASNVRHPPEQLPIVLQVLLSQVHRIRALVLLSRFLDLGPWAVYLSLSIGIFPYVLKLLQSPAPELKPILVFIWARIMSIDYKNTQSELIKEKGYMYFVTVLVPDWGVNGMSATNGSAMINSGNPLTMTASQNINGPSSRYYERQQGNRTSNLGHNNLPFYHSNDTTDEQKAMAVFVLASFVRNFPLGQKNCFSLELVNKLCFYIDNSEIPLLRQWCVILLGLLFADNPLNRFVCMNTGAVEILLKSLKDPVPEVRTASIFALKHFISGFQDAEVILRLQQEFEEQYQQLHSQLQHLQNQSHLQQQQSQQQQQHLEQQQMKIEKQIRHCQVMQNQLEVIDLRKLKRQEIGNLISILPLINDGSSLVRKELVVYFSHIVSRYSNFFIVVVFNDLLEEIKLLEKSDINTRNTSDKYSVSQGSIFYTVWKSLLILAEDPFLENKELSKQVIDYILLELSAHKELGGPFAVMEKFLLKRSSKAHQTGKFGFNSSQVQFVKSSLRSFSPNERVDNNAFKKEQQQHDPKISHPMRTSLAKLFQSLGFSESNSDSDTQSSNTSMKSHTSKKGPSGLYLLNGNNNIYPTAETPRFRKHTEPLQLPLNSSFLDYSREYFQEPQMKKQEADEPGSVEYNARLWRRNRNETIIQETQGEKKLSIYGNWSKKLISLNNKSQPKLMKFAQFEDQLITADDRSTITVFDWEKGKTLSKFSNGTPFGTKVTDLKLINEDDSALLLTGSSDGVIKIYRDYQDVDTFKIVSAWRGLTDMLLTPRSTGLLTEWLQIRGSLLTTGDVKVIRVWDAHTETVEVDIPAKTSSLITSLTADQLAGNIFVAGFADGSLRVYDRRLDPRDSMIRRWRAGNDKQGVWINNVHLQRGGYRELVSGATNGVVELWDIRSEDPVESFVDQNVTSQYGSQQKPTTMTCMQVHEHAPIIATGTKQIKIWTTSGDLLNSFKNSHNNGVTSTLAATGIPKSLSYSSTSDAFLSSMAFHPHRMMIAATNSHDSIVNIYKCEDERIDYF
Test: TORC1 in vitro kinase assay
pIC50: −log10 of the molar value.
property: pIC50

Ask: Looking for the measured pIC50 of CNc1nc(N)c([N+](=O)[O-])c(Nc2cccc(F)c2)n1 , can you help?
Result: ~6.82
